Origin of values: patent EP1380574B1

system: XF-498 (human CNS); assay: In vitro antitumor effect against human tumor cell lines, SRB assay; type: cell-based; settings: XF-498 cells, 48 hours with drug
measured.endpoint: ED50 (µ g/ml)

compound | measured.endpoint | recorded.measurement
N.N.[Cl][Pt][Cl] [Cisplatin, reference compound] | ED50 | 0.77
Cc1cc(C)cc(NC(=O)OCc2cc(N)cc(Nc3c4ccccc4nc4ccccc34)c2)c1 [Example 6] | ED50 | 0.37
CCCC=Nc1cc(CO)cc(Nc2c3ccccc3nc3ccccc23)c1 [Example 37] | ED50 | 0.36

----------
System: XF-498 (human CNS)
Experiment: In vitro antitumor effect against human tumor cell lines, SRB assay
Assay type: cell-based
Details: XF-498 cells, 48 hours with drug
Experimental: Experimental 1 : In vitro antitumor effect against human tumor cell lines. A. Tumor cell lines : A549 (human non-small lung cell) • SKOV-3 (human ovarian) • HCT-15 (human colon) • XF-498 (human CNS) • SKMEL-2 (human melanoma) • a. […] According to the SRB assay method, cell fixing with TCA, staining with 0.4% SRB solution, washing with 1% acetic acid and elution of dye with 10mmol Tris solution were carried out on Tz plates and culture-ended plates, and then, OD values were measured at 520 nm. […]
measured.endpoint: ED50 (µ g/ml)

smiles.entry | measured.endpoint | units | recorded.measurement
C[C@H](N)C(=O)Nc1cc(CO)cc(Nc2c3ccccc3nc3ccccc23)c1 | ED50 | µ g/ml | 0.88
COc1cc(NC(=O)OCc2cc(N)cc(Nc3c4ccccc4nc4ccccc34)c2)cc(OC)c1OC | ED50 | µ g/ml | 0.23
COc1cccc(NC(=O)OCc2cc(N)cc(Nc3c4ccccc4nc4ccccc34)c2)c1 | ED50 | µ g/ml | 0.71
Nc1cc(COC(=O)Nc2ccccc2)cc(Nc2c3ccccc3nc3ccccc23)c1 | ED50 | µ g/ml | 0.44

----------
assay: Acute toxicity test (LD50), Litchfield-Wilcoxon method; type: in vivo; settings: mouse, in vivo, iv, ICR mice (male), observed during 14 days

compound | units | LD50 at 14 days
C[C@H](N)C(=O)Nc1cc(CO)cc(Nc2c3ccccc3nc3ccccc23)c1 [Example 45] | mg/kg | 133

----------
assay: Acute toxicity test (LD50), Litchfield-Wilcoxon method; format: in vivo; conditions: mouse, in vivo, ip, ICR mice (male), observed during 14 days
measured.endpoint: LD50 at 14 days (mg/kg)

compound | recorded.measurement
C[C@H](N)C(=O)Nc1cc(CO)cc(Nc2c3ccccc3nc3ccccc23)c1 [Example 45] | 730

----------
The reader will find reported IC50 values listed item by item below.
target: Topoisomerase II; experiment: Inhibition of Topoisomerase II activity (DNA relaxation assay / DNA cleavage assay with supercoiled pBR322 DNA); format: biochemical; conditions: Topo II, 30 minutes at 37°C, table does not say which of the two assays
measured.endpoint: IC50 (µg/mL)

compound | recorded.measurement
NCC(=O)Nc1cc(CO)cc(Nc2c3ccccc3nc3ccccc23)c1 [Example 44] | 3
COc1cc(NC(=S)OCc2cc(N)cc(Nc3c4ccccc4nc4ccccc34)c2)cc(OC)c1 [Example 18] | 3
Nc1cc(COC(=O)Nc2cc(F)cc(F)c2)cc(Nc2c3ccccc3nc3ccccc23)c1 [Example 12] | 0.5
COc1cc(NC(=O)OCc2cc(N)cc(Nc3c4ccccc4nc4ccccc34)c2)cc(OC)c1 [Example 3] | 3
COc1cc(NC(=O)OCc2cccc(Nc3c4ccccc4nc4ccccc34)c2)cc(OC)c1OC [Example 22] | 5
COc1cc(NC(=S)OCc2cc(N)cc(Nc3c4ccccc4nc4ccccc34)c2)cc(OC)c1OC [Example 19] | 5
CCC=Nc1cc(CO)cc(Nc2c3ccccc3nc3ccccc23)c1 [Example 36] | 3
CC=Nc1cc(CO)cc(Nc2c3ccccc3nc3ccccc23)c1 [Example 35] | 5
